target_entity: HTRA3 (Homo sapiens, UniProt P83110)
Sequence (P83110 111-436): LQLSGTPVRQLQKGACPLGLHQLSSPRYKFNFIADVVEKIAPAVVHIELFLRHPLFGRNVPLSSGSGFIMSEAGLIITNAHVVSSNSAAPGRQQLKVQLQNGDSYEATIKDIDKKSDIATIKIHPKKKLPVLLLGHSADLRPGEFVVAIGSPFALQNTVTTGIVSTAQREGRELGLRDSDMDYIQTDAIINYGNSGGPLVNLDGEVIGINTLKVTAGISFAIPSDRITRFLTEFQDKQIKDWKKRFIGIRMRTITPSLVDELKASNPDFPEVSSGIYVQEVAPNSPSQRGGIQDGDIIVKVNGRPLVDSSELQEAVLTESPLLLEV
protocol: Chromogenic enzyme activity assay, HTRA3
observable: pKi
Keep in mind that pKi stands for -log10 of concentration in molar terms.

structure_smiles	target_entity	observable	numeric_value
CC[C@@H]1NC(=O)[C@@H](NC(=O)[C@H](C)NC(=O)[C@H](C)NC(=O)OCc2ccccc2)[C@@H](C)OC(=O)[C@H](C(C)C)NC(=O)[C@H](Cc2ccccc2)N(C)C(=O)[C@H](CC(C)C)N2C(=O)[C@H](CC[C@H]2O)NC1=O	HTRA3 (Homo sapiens, UniProt P83110)	pKi	5.84

Next up:
Respond only with pKi recorded for "C#CC[C@@H]1NC(=O)[C@@H](NC(=O)[C@H](C)NC(=O)[C@H](C)NC(=O)OCc2ccccc2)[C@@H](C)OC(=O)[C@H](C(C)C)NC(=O)[C@H](Cc2ccccc2)N(C)C(=O)[C@H](CC(C)C)N2C(=O)[C@H](CC[C@H]2O)NC1=O"
4.75

----------
Recorded Ki, one value per entry.
target_entity: human neutrophil elastase (Homo sapiens, UniProt P08246)
Construct: purchased Enzo Life Sciences BML-SE284
Sequence (P08246 30-267): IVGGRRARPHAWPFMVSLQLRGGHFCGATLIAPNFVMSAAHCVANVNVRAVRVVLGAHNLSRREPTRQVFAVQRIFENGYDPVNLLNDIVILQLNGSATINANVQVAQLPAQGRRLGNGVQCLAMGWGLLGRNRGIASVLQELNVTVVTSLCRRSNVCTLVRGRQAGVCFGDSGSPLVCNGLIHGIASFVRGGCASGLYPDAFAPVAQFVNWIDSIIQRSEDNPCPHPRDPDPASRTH
protocol: Chromogenic enzyme activity assay, elastase
Type: biochemical
condition_summary: Table 3, read-out: Ki Elastase [b]

molecule	Ki
C=CC[C@@H]1NC(=O)[C@@H](NC(=O)[C@H](C)NC(=O)[C@H](C)NC(=O)OCc2ccccc2)[C@@H](C)OC(=O)[C@H](C(C)C)NC(=O)[C@H](Cc2ccccc2)N(C)C(=O)[C@H](CC(C)C)N2C(=O)[C@H](CC[C@H]2O)NC1=O	160 nM
CC[C@@H]1NC(=O)[C@@H](NC(=O)[C@H](C)NC(=O)[C@H](C)NC(=O)OCc2ccccc2)[C@@H](C)OC(=O)[C@H](C(C)C)NC(=O)[C@H](Cc2ccccc2)N(C)C(=O)[C@H](CC(C)C)N2C(=O)[C@H](CC[C@H]2O)NC1=O	470 nM
CCC[C@@H]1NC(=O)[C@@H](NC(=O)[C@H](C)NC(=O)[C@H](C)NC(=O)OCc2ccccc2)[C@@H](C)OC(=O)[C@H](C(C)C)NC(=O)[C@H](Cc2ccccc2)N(C)C(=O)[C@H](CC(C)C)N2C(=O)[C@H](CC[C@H]2O)NC1=O	130 nM
C#CC[C@@H]1NC(=O)[C@@H](NC(=O)[C@H](C)NC(=O)[C@H](C)NC(=O)OCc2ccccc2)[C@@H](C)OC(=O)[C@H](C(C)C)NC(=O)[C@H](Cc2ccccc2)N(C)C(=O)[C@H](CC(C)C)N2C(=O)[C@H](CC[C@H]2O)NC1=O	200 nM
CC(C)C[C@H]1C(=O)N(C)[C@@H](Cc2ccccc2)C(=O)N[C@@H](C(C)C)C(=O)O[C@H](C)[C@H](NC(=O)[C@H](C)NC(=O)[C@H](C)NC(=O)OCc2ccccc2)C(=O)N[C@@H](C2CCCCC2)C(=O)N[C@H]2CC[C@@H](O)N1C2=O	> 50000 nM

Respond only with Ki recorded for "CC(C)C[C@H]1C(=O)N(C)[C@@H](Cc2ccccc2)C(=O)N[C@@H](C(C)C)C(=O)O[C@H](C)[C@H](NC(=O)[C@H](C)NC(=O)[C@H](C)NC(=O)OCc2ccccc2)C(=O)N[C@@H](C)C(=O)N[C@H]2CC[C@@H](O)N1C2=O"
26 nM

Respond only with Ki recorded for CCC(C)[C@@H]1NC(=O)[C@@H](NC(=O)[C@H](C)NC(=O)[C@H](C)NC(=O)OCc2ccccc2)[C@@H](C)OC(=O)[C@H](C(C)C)NC(=O)[C@H](Cc2ccccc2)N(C)C(=O)[C@H](CC(C)C)N2C(=O)[C@H](CC[C@H]2O)NC1=O (stereo partly shown)
500 nM

Source of measurements: patent EP3625243B1
